biological target: MDR1 (P-gp, ABCB1) (Homo sapiens, UniProt P08183); experiment: Activity at human MDR1 transfected in MDCK cells assessed as efflux ratio of apparent permeability from basolateral to apical side over apical to basolateral side at 5 uM; type: ADME, cell-based
Sequence (P08183 whole entry): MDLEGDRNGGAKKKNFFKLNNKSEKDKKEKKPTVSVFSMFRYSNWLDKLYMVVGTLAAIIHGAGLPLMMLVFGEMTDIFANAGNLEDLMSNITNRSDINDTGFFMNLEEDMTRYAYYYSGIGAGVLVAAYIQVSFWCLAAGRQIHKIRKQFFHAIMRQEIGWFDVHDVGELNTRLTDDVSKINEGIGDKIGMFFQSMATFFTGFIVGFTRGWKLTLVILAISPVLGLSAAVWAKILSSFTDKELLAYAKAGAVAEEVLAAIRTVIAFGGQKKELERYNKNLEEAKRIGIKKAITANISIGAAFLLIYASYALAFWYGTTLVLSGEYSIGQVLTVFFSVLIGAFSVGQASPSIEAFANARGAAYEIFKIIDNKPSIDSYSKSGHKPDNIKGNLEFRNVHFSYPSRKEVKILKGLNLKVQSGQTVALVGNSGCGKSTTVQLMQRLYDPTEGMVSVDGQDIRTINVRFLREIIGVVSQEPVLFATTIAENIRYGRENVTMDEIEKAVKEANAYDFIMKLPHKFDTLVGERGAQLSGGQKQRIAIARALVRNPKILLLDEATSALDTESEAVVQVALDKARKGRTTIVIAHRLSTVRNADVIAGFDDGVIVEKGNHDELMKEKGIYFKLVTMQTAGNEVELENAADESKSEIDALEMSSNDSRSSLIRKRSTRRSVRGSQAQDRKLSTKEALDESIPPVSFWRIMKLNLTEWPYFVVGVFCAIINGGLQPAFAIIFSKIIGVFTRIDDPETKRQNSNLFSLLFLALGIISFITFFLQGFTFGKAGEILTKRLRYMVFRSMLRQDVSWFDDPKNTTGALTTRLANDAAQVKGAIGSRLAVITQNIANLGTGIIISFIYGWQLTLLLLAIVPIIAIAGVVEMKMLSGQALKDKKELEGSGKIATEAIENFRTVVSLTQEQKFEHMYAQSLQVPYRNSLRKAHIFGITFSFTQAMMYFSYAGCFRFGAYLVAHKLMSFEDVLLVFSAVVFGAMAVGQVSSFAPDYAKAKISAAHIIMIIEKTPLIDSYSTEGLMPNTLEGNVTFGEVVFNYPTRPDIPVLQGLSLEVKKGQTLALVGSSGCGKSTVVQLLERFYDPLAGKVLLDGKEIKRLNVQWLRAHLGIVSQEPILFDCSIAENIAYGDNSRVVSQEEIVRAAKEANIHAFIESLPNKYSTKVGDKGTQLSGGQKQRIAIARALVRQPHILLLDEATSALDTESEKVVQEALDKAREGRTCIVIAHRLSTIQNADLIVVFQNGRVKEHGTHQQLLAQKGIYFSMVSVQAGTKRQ
Recorded Metric: efflux ratio at 5 µM
Answer as a number with no unit attached.

Ask | # lookup: efflux ratio at 5 µM of "CCNC(=O)C(C)(C)n1cc(Nc2ncc(C(F)(F)F)c(NC)n2)c(C)n1"
Reply | 4

Ask | // efflux ratio at 5 µM lookup, key: "CNc1nc(Nc2cn(C3(C#N)CC3)nc2C)ncc1C(F)(F)F"
Reply | 1.4

Ask | // lookup efflux ratio at 5 µM for "CNc1nc(Nc2cn(C(C)(C)C(=O)NCC(F)(F)F)nc2C)ncc1C(F)(F)F"
Reply | 1.5

Ask | Look up efflux ratio at 5 µM: "CCNc1nc(Nc2cc(C(C)(C)C#N)nn2C)ncc1C(F)(F)F"
Reply | 1.5

Ask | # lookup: efflux ratio at 5 µM of "CNc1nc(Nc2cnn(C(C)(C)C#N)c2C)ncc1C(F)(F)F"
Reply | 1

Ask | Entry "CNc1nc(Nc2cnn(C3CCOCC3)c2C)ncc1C(F)(F)F" : reported efflux ratio at 5 µM = ?
Reply | 2.3

Ask | Query (compound): "CNc1nc(Nc2cnn(C3COC3)c2C)ncc1C(F)(F)F" ; field requested: efflux ratio at 5 µM
Reply | 1.4

Ask | Would you kindly share the measured efflux ratio at 5 µM for "CNc1nc(Nc2cnn3c2COCC3)ncc1C(F)(F)F" ?
Reply | 1

Ask | What does the data say about its efflux ratio at 5 µM? Entry: "CNc1nc(Nc2cnn(C3CCN(C4COC4)CC3)c2C)ncc1C(F)(F)F"
Reply | 5.1

Ask | Tell me the measured efflux ratio at 5 µM of "CNc1nc(Nc2cnn3c2COC(C)(C)C3)ncc1C(F)(F)F" , please.
Reply | 0.7

Ask | Looking for the measured efflux ratio at 5 µM of "CNc1nc(Nc2cn(C(C)(C)C(=O)NC(C)C)nc2C)ncc1C(F)(F)F" , can you help?
Reply | 1.3

Ask | Look up efflux ratio at 5 µM for this compound: "CNC(=O)C(C)(C)n1cc(Nc2ncc(C(F)(F)F)c(NC)n2)c(C)n1"
Reply | 5.5

Ask | Could you tell me which efflux ratio at 5 µM is on file for CNc1nc(Nc2cn([C@H]3CCN(C4COC4)C[C@H]3F)nc2C)ncc1C(F)(F)F (relative stereo) ?
Reply | 2.2

Ask | # lookup: efflux ratio at 5 µM of CNc1nc(Nc2cnn3c2C(C)O[C@@H](C)C3)ncc1C(F)(F)F (stereo partly specified)
Reply | 1

Ask | Any idea what its efflux ratio at 5 µM is? The compound is "CNc1nc(Nc2cnn(C3(C#N)CC3)c2Cl)ncc1C(F)(F)F"
Reply | 1.3

Ask | For the compound CNc1nc(Nc2cnn3c2C(C)OCC3)ncc1C(F)(F)F (stereo unspecified) , what efflux ratio at 5 µM is on record?
Reply | 1.3

All values here come from ChEMBL document CHEMBL3120096.
